Measured IC50, listed per entry.
Biological target: GGTase I (Homo sapiens, UniProt P49354+P53609)
Test: In vitro inhibition of GGTase I-mediated prenylation (H-ras (61 L, CAIL), [3H] geranylgeranyl diphosphate)
Conditions: 5 μM recombinant H-ras (61 L, CAIL), 1 mM [3H] geranylgeranyl diphosphate
API: value field is a number in nM; no unit string.

Solved cases below.
CSCC[C@H](NC(=O)c1cc(OCC[C@@H](N)CS)ccc1-c1ccccc1)C(=O)O
38
CSCC[C@H](NC(=O)c1cc(OCC[C@@H](N)CS)ccc1C(C)C)C(=O)O
390
CSCC[C@H](NC(=O)c1ccccc1OC[C@@H](/C=C/[C@@H](N)CS)C(C)C)C(=O)O
1900
CSCCC(NC(=O)c1ccc(OC[C@@H](/C=C/[C@@H](N)CS)C(C)C)cc1)C(=O)O (some centres unmarked)
40000
CSCC[C@H](NC(=O)c1cc(COC[C@@H](N)CS)ccc1C(C)C)C(=O)O
930

// query Kindly state the measured IC50 obtained for `CSCC[C@H](NC(=O)c1cc(OC[C@@H](/C=C/[C@@H](N)CS)C(C)C)ccc1C(C)C)C(=O)O` with GGTase I (Homo sapiens, UniProt P49354+P53609).
// result 3800

// query Reported IC50 for GGTase I (Homo sapiens, UniProt P49354+P53609), given `CSCC[C@H](NC(=O)c1cc(OC[C@@H](N)CS)ccc1-c1ccccc1)C(=O)O` ?
// result 130

// query // map `CSCC[C@H](NC(=O)c1cc2ccccc2cc1OC[C@@H](/C=C/[C@@H](N)CS)C(C)C)C(=O)O` to recorded IC50 (system: GGTase I (Homo sapiens, UniProt P49354+P53609))
// result 1700

// query Tell me reported IC50 for `CSCC[C@@H](C(=O)O)N(C)Cc1cc(OCC[C@@H](N)CS)ccc1C(C)C` , tested with GGTase I (Homo sapiens, UniProt P49354+P53609).
// result 8900

// query Lab note: need IC50 for `CSCC[C@H](NC(=O)c1cccc(OC/C=C/[C@@H](N)CS)c1)C(=O)O` on GGTase I (Homo sapiens, UniProt P49354+P53609), anyone have it?
// result 3000

// query # value lookup — system GGTase I (Homo sapiens, UniProt P49354+P53609), readout IC50, item `CSCC[C@H](NC(=O)c1cc(OCC[C@@H](C)CS)ccc1C(C)C)C(=O)O`
// result 100000

// query Return IC50 measured with GGTase I (Homo sapiens, UniProt P49354+P53609) given this molecule: `CSCC[C@H](NC(=O)c1cccc(OC[C@@H](/C=C/[C@@H](N)CS)C(C)C)c1)C(=O)O`
// result 1900

// query // fetch GGTase I (Homo sapiens, UniProt P49354+P53609) IC50 for `CSCC[C@H](NC(=O)c1cc2ccccc2cc1OC/C=C/[C@@H](N)CS)C(=O)O`
// result 4200
